Cited source: ChEMBL document CHEMBL3046052

In this section we review reported MIC values for a set of compounds.
- System: Cryptococcus neoformans
- PROCEDURE_SUMMARY: Antifungal activity against Cryptococcus neoformans clinical isolate after 48 hr by NCCLS two-fold serial dilution method
- Assay type: functional
MEASUREMENT_NAME: MIC (µg/mL)

{"COMPOUND": "O=C(CC1SC(=O)NC1=O)Nc1nnc(-c2ccc([N+](=O)[O-])cc2)s1 (stereo not given)", "MEASURED_RESULT": 64}
{"COMPOUND": "COc1ccc(-c2nnc(NC(=O)CC3SC(=O)NC3=O)s2)cc1OC (stereo not given)", "MEASURED_RESULT": 16}
{"COMPOUND": "O=C(CC1SC(=O)NC1=O)Nc1nnc(-c2ccccc2)s1 (stereo not given)", "MEASURED_RESULT": 64}
{"COMPOUND": "COc1cc(-c2nnc(NC(=O)CC3SC(=O)NC3=O)s2)cc(OC)c1OC (stereo not given)", "MEASURED_RESULT": 32}
{"COMPOUND": "CC(=O)N1CCN(c2ccc(OCC3COC(Cn4ccnc4)(c4ccc(Cl)cc4Cl)O3)cc2)CC1 (stereo not given)", "MEASURED_RESULT": 2}
{"COMPOUND": "O=C(CC1SC(=O)NC1=O)Nc1nnc(-c2ccc(Br)cc2)s1 (stereo not given)", "MEASURED_RESULT": 16}
{"COMPOUND": "O=C(CC1SC(=O)NC1=O)Nc1nnc(C(F)(F)F)s1 (stereo not given)", "MEASURED_RESULT": 16}
{"COMPOUND": "O=C(CC1SC(=O)NC1=O)Nc1nnc(-c2ccc(Cl)cc2)s1 (stereo not given)", "MEASURED_RESULT": 16}
{"COMPOUND": "O=C(CC1SC(=O)NC1=O)Nc1nnc(-c2ccc(F)cc2)s1 (stereo not given)", "MEASURED_RESULT": 8}
{"COMPOUND": "O=C(CC1SC(=O)NC1=O)Nc1nnc(-c2ccccc2Cl)s1 (stereo not given)", "MEASURED_RESULT": 16}
{"COMPOUND": "COc1ccc(-c2nnc(NC(=O)CC3SC(=O)NC3=O)s2)cc1 (stereo not given)", "MEASURED_RESULT": 16}
{"COMPOUND": "O=C(CC1SC(=O)NC1=O)Nc1nnc(-c2ccccc2[N+](=O)[O-])s1 (stereo not given)", "MEASURED_RESULT": 64}
{"COMPOUND": "O=C(CC1SC(=O)NC1=O)Nc1nnc(-c2cccc([N+](=O)[O-])c2)s1 (stereo not given)", "MEASURED_RESULT": 64}
{"COMPOUND": "COc1cccc(-c2nnc(NC(=O)CC3SC(=O)NC3=O)s2)c1 (stereo not given)", "MEASURED_RESULT": 16}
{"COMPOUND": "Cc1ccc(-c2nnc(NC(=O)CC3SC(=O)NC3=O)s2)cc1 (stereo not given)", "MEASURED_RESULT": 32}

###

- System: Enterococcus faecalis
- PROCEDURE_SUMMARY: Antibacterial activity against Enterococcus faecalis ATCC 35550 after 24 hr by NCCLS two-fold serial dilution method
- Type: functional
- MEASUREMENT_CONTEXT: ATCC 35550, 24 h
In this section we review reported MIC values for a set of compounds.
MEASUREMENT_NAME: MIC (µg/mL)

{"COMPOUND": "Cc1ccc(-c2nnc(NC(=O)CC3SC(=O)NC3=O)s2)cc1 (stereo not given)", "TESTED_SYSTEM": "Enterococcus faecalis", "MEASURED_RESULT": 4}
{"COMPOUND": "O=C(CC1SC(=O)NC1=O)Nc1nnc(C(F)(F)F)s1 (stereo not given)", "TESTED_SYSTEM": "Enterococcus faecalis", "MEASURED_RESULT": 32}
{"COMPOUND": "O=C(CC1SC(=O)NC1=O)Nc1nnc(-c2ccccc2Cl)s1 (stereo not given)", "TESTED_SYSTEM": "Enterococcus faecalis", "MEASURED_RESULT": 16}
{"COMPOUND": "COc1ccc(-c2nnc(NC(=O)CC3SC(=O)NC3=O)s2)cc1 (stereo not given)", "TESTED_SYSTEM": "Enterococcus faecalis", "MEASURED_RESULT": 4}
{"COMPOUND": "COc1cccc(-c2nnc(NC(=O)CC3SC(=O)NC3=O)s2)c1 (stereo not given)", "TESTED_SYSTEM": "Enterococcus faecalis", "MEASURED_RESULT": 8}
{"COMPOUND": "COc1ccc(-c2nnc(NC(=O)CC3SC(=O)NC3=O)s2)cc1OC (stereo not given)", "TESTED_SYSTEM": "Enterococcus faecalis", "MEASURED_RESULT": 32}
{"COMPOUND": "CC1(C)S[C@@H]2[C@H](NC(=O)[C@H](N)c3ccccc3)C(=O)N2[C@H]1C(=O)O [AMPICILLIN]", "TESTED_SYSTEM": "Enterococcus faecalis", "MEASURED_RESULT": 2}
{"COMPOUND": "O=C(CC1SC(=O)NC1=O)Nc1nnc(-c2ccc(Br)cc2)s1 (stereo not given)", "TESTED_SYSTEM": "Enterococcus faecalis", "MEASURED_RESULT": 32}
{"COMPOUND": "O=C(CC1SC(=O)NC1=O)Nc1nnc(-c2ccc([N+](=O)[O-])cc2)s1 (stereo not given)", "TESTED_SYSTEM": "Enterococcus faecalis", "MEASURED_RESULT": 32}
{"COMPOUND": "COc1cc(-c2nnc(NC(=O)CC3SC(=O)NC3=O)s2)cc(OC)c1OC (stereo not given)", "TESTED_SYSTEM": "Enterococcus faecalis", "MEASURED_RESULT": 16}
{"COMPOUND": "O=C(CC1SC(=O)NC1=O)Nc1nnc(-c2ccccc2)s1 (stereo not given)", "TESTED_SYSTEM": "Enterococcus faecalis", "MEASURED_RESULT": 64}
{"COMPOUND": "O=C(CC1SC(=O)NC1=O)Nc1nnc(-c2ccc(Cl)cc2)s1 (stereo not given)", "TESTED_SYSTEM": "Enterococcus faecalis", "MEASURED_RESULT": 32}
{"COMPOUND": "O=C(CC1SC(=O)NC1=O)Nc1nnc(-c2cccc([N+](=O)[O-])c2)s1 (stereo not given)", "TESTED_SYSTEM": "Enterococcus faecalis", "MEASURED_RESULT": 64}
{"COMPOUND": "O=C(CC1SC(=O)NC1=O)Nc1nnc(-c2ccc(F)cc2)s1 (stereo not given)", "TESTED_SYSTEM": "Enterococcus faecalis", "MEASURED_RESULT": 4}
{"COMPOUND": "O=C(CC1SC(=O)NC1=O)Nc1nnc(-c2ccccc2[N+](=O)[O-])s1 (stereo not given)", "TESTED_SYSTEM": "Enterococcus faecalis", "MEASURED_RESULT": 64}

###

- System: Aspergillus niger
- PROCEDURE_SUMMARY: Antifungal activity against Aspergillus niger ATCC 6275 after 48 hr by NCCLS two-fold serial dilution method
- Assay type: functional
- MEASUREMENT_CONTEXT: ATCC 6275, 48 h

{"COMPOUND": "COc1ccc(-c2nnc(NC(=O)CC3SC(=O)NC3=O)s2)cc1 (stereo not given)", "MIC [µg/mL]": 16}
{"COMPOUND": "O=C(CC1SC(=O)NC1=O)Nc1nnc(-c2ccccc2Cl)s1 (stereo not given)", "MIC [µg/mL]": 16}
{"COMPOUND": "O=C(CC1SC(=O)NC1=O)Nc1nnc(-c2ccc(Br)cc2)s1 (stereo not given)", "MIC [µg/mL]": 16}
{"COMPOUND": "COc1cc(-c2nnc(NC(=O)CC3SC(=O)NC3=O)s2)cc(OC)c1OC (stereo not given)", "MIC [µg/mL]": 16}
{"COMPOUND": "COc1cccc(-c2nnc(NC(=O)CC3SC(=O)NC3=O)s2)c1 (stereo not given)", "MIC [µg/mL]": 32}

###

- Test system: MCF7
- PROCEDURE_SUMMARY: Cytotoxicity against Homo sapiens (human) MCF7 cells after 24 hr by MTT assay
- Format: functional, cell-based
- MEASUREMENT_CONTEXT: MCF7, 24 h
pIC50: −log10 of the molar value.

{"MOLECULE": "O=C(CC1SC(=O)NC1=O)Nc1nnc(-c2ccc(F)cc2)s1 (stereo unspecified)", "pIC50": 4.22}
{"MOLECULE": "O=C(CC1SC(=O)NC1=O)Nc1nnc(-c2ccc([N+](=O)[O-])cc2)s1 (stereo unspecified)", "pIC50": 4.14}
{"MOLECULE": "O=C(CC1SC(=O)NC1=O)Nc1nnc(-c2ccccc2Cl)s1 (stereo unspecified)", "pIC50": 4.08}
{"MOLECULE": "Cc1ccc(-c2nnc(NC(=O)CC3SC(=O)NC3=O)s2)cc1 (stereo unspecified)", "pIC50": 4.28}
{"MOLECULE": "COc1cccc(-c2nnc(NC(=O)CC3SC(=O)NC3=O)s2)c1 (stereo unspecified)", "pIC50": 4.24}
{"MOLECULE": "O=C(CC1SC(=O)NC1=O)Nc1nnc(-c2ccc(Br)cc2)s1 (stereo unspecified)", "pIC50": 4.14}
